Every entry's value here was drawn from paper PMC4334984.

target: Toxin B (Clostridium difficile, UniProt P18177 1-2366); assay: SPR (single cycle kinetics, 1:1 model); […] (pH not stated); […]; SPR temperature not stated; settings: protein: commercial
Sequence (P18177 whole entry): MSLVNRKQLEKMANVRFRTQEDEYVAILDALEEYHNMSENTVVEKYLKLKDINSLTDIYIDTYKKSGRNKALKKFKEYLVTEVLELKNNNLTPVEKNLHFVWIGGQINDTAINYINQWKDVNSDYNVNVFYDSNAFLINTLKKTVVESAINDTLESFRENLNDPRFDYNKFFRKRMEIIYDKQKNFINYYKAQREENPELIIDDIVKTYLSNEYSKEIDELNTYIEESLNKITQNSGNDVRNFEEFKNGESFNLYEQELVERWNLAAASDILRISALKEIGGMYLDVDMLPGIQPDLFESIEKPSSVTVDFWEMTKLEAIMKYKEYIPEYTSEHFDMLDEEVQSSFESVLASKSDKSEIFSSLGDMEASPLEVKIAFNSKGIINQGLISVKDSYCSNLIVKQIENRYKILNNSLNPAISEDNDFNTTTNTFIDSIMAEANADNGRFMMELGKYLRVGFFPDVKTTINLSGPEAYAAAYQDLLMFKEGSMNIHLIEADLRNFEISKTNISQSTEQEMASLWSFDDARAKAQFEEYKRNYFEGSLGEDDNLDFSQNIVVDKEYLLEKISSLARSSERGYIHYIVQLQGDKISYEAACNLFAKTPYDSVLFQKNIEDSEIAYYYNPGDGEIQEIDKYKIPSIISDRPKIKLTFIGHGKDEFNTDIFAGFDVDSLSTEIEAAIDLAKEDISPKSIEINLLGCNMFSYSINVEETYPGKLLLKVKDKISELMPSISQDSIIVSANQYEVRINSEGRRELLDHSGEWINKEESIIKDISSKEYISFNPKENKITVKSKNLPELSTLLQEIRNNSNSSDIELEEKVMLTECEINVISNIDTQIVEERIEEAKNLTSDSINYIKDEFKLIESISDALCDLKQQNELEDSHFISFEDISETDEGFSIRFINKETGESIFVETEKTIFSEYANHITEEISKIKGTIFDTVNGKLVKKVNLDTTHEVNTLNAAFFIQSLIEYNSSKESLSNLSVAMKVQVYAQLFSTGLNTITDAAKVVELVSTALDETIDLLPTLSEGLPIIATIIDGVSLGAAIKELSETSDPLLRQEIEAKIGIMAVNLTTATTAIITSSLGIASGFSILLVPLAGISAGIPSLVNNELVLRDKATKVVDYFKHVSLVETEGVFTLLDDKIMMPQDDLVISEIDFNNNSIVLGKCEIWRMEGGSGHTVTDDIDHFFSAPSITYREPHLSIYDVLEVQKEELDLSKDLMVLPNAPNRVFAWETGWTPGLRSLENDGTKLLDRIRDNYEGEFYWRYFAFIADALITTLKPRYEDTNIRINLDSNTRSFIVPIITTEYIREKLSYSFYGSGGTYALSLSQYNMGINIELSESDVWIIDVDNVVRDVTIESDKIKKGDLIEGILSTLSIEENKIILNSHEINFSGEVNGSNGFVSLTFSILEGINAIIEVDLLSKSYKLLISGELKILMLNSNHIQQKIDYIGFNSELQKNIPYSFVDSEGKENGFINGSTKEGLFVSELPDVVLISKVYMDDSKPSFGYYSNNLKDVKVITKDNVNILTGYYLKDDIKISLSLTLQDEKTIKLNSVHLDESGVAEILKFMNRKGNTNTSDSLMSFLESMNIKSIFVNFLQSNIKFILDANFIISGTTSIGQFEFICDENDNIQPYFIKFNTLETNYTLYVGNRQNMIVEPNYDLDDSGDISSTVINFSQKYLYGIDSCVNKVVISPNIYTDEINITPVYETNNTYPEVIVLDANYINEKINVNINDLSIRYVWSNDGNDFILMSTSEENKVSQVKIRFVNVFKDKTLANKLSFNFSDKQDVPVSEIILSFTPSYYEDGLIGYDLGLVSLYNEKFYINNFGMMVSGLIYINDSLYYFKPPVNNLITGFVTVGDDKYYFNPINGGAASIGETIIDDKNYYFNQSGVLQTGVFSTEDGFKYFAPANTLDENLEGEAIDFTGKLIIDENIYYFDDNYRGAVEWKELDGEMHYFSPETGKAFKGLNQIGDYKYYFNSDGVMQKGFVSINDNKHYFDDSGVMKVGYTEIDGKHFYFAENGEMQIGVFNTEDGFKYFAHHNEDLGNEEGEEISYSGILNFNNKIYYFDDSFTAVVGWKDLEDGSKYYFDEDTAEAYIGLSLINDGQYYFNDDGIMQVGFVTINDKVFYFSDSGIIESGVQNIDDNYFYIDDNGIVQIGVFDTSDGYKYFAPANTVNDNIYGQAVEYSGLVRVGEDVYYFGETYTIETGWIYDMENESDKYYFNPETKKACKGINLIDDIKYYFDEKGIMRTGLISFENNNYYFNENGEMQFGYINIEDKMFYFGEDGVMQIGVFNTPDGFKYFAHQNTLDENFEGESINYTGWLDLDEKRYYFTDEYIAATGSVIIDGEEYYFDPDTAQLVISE
Property name: Kd (nM)
Return type: number; implicit unit nM.

Ask | Recorded Kd for R12.69 (SPR) (ssDNA, 5'-amino-C6) DNA: TGTACCGTCTGAGCGATTCGTACCCTCGCTAATGCTGCTTGATGTGTGGCCTCGAATAGCCAGTCAGTGTTAAGGAGTGC , please?
Reply | 47.3
